Recorded values, source ChEMBL document CHEMBL1136478.

- Tested on: Cryptococcus neoformans
- procedureText: Antifungal activity against Cryptococcus neoformans after 24 hr incubation
metric: MIC
Could you give the number and then its unit, please?

Recorded MIC, per entry:
{"columns": ["compound", "assayTarget", "MIC"],
 "data": [
  ["CCCCCCCCC/C=C/CC/C=C/[C@@H](O)[C@H](CO[C@@H]1OC(CO)[C@@H](O)C(O)C1O)NC(=O)[C@H](O)CCCCCCCCCCCCCC (stereo not given in full)", "Cryptococcus neoformans", "128 µg/mL"],
  ["CCCCCCCC/C=C/CCCCCCCCCCCCCC[C@@H](O)C(=O)N[C@@H](CO[C@@H]1OC(CO)[C@@H](O)C(O)C1O)[C@H](O)[C@H](O)CCC/C=C/CCCCCCCCC (stereo not given in full)", "Cryptococcus neoformans", "128 µg/mL"],
  ["Clc1ccc(COC(Cn2ccnc2)c2ccc(Cl)cc2Cl)c(Cl)c1 (stereo not given) [MICONAZOLE]", "Cryptococcus neoformans", "0.156 µg/mL"]
]}

Query :: Can you share its MIC? I mean this compound: CCCCCCCCC/C=C/CCC[C@@H](O)[C@@H](O)[C@H](CO[C@@H]1OC(CO)[C@@H](O)C(O)C1O)NC(=O)[C@H](O)CCCCCCCCCCCCCCCCCCCCCC (stereo not given in full)
Result :: 128 µg/mL

Query :: // next record CCCCCCCC/C=C/CCCCCCCCCCCC[C@@H](O)C(=O)N[C@@H](CO[C@@H]1OC(CO)[C@@H](O)C(O)C1O)[C@H](O)[C@H](O)CCC/C=C/CCCCCCCCC (stereo not given in full)
Result :: 64 µg/mL
